- tested target: T1, CD47 on the surface of CHO-K1-E5 cells (human, UniProt Q08722 19-323)
- T1 construct: Full length CD47 expressed from pTargeT-CD47 in CHO-K1 cells; also called CD47 on cell surface; CHO-K1-hCD47
- assay notes: FACS blocking assay on CHO-K1-E5 cells; blocked ligand SIRPα-Biotin, PE streptavidin
value kind: IC50 (read off the curve)

Which value of IC50 (read off the curve) has been reported for Hu34-39-PE (antibody, IgG4, V domains shown, also called humanized anti-CD47 antibody Hu34-39-PE) VH: QVQLQESGPGLVKPSQTLSLTCKASGYTFTNYWITWVKQRPGQGLEWIGDITPGRGETNYNQKFKGRVTLTVDISASTAYMELSSLRSEDTAVYYCSRWGLRRGDYWGQGTSVTVSS VL: EIVLTQSPGTLSLSPGERATLSCRASSSVSSSYLNWYQQKSGASPKLWIYSTSNLASGVPGRFSGSGSGTSYSLTISSVEAEDAATYYCQQYSGYPLTFGAGTKLEVK in the records?
~1 nM

Values were extracted from patent US20230090014A1.
